System: Sonic hedgehog protein (Shh)
Assay Details: Sonic hedgehog microarray binding compounds – biochemical, small-molecule microarray, 635/667 nm fluorescence, primary screen (AID 1151);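 note: Shh protein binding to compounds spotted on small-molecule microarray slides; score combines spot fluorescence intensity with signal-to-noise across triplicate slides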
Applied Conditions: 635 nm fluorescence, higher = more signal
We begin with a simple list: items and their reported composite z-score.
// no unit string in output, number only

Prompt: Fill in reported composite z-score for this entry: CC(C)C(=C=CC[C@H](O)c1ccccc1OCCO)C[C@H](O)COCc1ccccc1
Completion: 0.0553

Prompt: Fill in reported composite z-score for this entry: COCCOC(=O)N1C(=O)[C@@]2(c3cc(C#CCC(C(=O)OC)C(=O)OC)ccc31)[C@H](C(=O)Nc1nc3ccccc3s1)[C@H]1C(=O)O[C@H](c3ccccc3)[C@H](c3ccccc3)N1[C@@H]2c1ccc(OCCO)cc1
Completion: 2.23

Prompt: Fill in reported composite z-score for this entry: CN1C(=O)[C@@H]2[C@@H](CC(COc3ccccc3)=C3[C@@H](CCc4ccccc4)OB(O)C[C@@H]32)C1=O
Completion: 0.394
